Target: RELB subunit;p50 subunit (Homo sapiens;Homo sapiens, UniProt Q01201;P19838 120-401;7-356)
Sequence (Q01201 120-401, chain 1 of 2): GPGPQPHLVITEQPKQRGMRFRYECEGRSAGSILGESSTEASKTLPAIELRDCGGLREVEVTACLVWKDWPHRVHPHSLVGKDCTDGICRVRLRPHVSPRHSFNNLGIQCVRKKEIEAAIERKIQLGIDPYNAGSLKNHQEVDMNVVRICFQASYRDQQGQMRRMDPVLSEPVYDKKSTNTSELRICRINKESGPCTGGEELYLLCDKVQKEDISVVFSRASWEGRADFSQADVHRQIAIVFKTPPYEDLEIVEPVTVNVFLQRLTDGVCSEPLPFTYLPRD
Sequence (P19838 7-356, chain 2 of 2): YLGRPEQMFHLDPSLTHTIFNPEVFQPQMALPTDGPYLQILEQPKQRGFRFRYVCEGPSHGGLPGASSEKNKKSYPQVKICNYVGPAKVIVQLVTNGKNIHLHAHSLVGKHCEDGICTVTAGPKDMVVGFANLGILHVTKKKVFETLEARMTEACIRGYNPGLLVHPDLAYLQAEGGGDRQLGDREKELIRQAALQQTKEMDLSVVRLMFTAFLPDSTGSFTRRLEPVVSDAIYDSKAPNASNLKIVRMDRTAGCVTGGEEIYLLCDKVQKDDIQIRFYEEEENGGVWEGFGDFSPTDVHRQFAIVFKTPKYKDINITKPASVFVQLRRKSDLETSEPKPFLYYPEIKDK
Assay: protein binding microarray; high values mean tight binding
Conditions: dsDNA, one strand shown
Outcome label depends on binding signal relative to 0.6 z-score: at/above gives TRUE, below gives FALSE.

AAGGTCCTCCT: FALSE
CGAGGAATCCT: FALSE
CGAAGATCCCC: TRUE
AGGTGGTCCCT: TRUE
GAATAGCTCCC: FALSE
CGATACCTCCC: FALSE
GAATGGATCCC: FALSE
AAAGTTACCCT: FALSE
GAATTCACCCC: FALSE
GAAGGAACCCT: FALSE
GAATAACTCCT: FALSE
GAGTGCCCCCT: TRUE
CAGTGGGTCCT: FALSE
CGGGATGCCCC: TRUE
AGAATAATCCT: FALSE
CGGTAGCCCCT: FALSE
AAAATGATCCC: FALSE
GAAATGCTCCC: FALSE
AAAATACCCCT: TRUE
GAAAAGTCCCT: TRUE
CGAGTTTCCCT: TRUE
CAATACATCCC: FALSE
CAGTGCATCCT: FALSE
GGAAACCTCCT: FALSE
AGGGACGTCCT: FALSE
GAAGGAGTCCT: FALSE
AGGTAAACCCC: TRUE
GAGTTGTTCCC: FALSE
AGATATCTCCT: FALSE
CGAATCATCCC: FALSE
AGATGTTTCCC: FALSE
AAATTTCCCCC: TRUE
GAAAATATCCT: FALSE
CAAAAAGTCCC: TRUE
GAGATTTTCCT: FALSE
GGAAATCCCCT: TRUE
AAGGTCCCCCC: TRUE
CAGAGTGCCCT: FALSE
AAAGACTCCCT: FALSE
GAATATCCCCC: TRUE
AGAGTCATCCT: FALSE
GGAAAGATCCT: FALSE
GAGTGCGTCCT: FALSE
AGAGTAGCCCT: FALSE
AGAATTTCCCC: TRUE
GGGATGCCCCT: TRUE
AAAAGGTCCCC: TRUE
GGATGACTCCC: FALSE
AAGGGCGTCCT: FALSE
AGAGAGGTCCT: FALSE
GGGAATCTCCT: FALSE
GAAAATCTCCC: TRUE
